The reported measurements were obtained from ChEMBL document CHEMBL2375287.

What follows is a collection of Ki values obtained with Histamine H4 receptor (Rattus norvegicus, UniProt Q91ZY1).
Sequence (Q91ZY1 whole entry): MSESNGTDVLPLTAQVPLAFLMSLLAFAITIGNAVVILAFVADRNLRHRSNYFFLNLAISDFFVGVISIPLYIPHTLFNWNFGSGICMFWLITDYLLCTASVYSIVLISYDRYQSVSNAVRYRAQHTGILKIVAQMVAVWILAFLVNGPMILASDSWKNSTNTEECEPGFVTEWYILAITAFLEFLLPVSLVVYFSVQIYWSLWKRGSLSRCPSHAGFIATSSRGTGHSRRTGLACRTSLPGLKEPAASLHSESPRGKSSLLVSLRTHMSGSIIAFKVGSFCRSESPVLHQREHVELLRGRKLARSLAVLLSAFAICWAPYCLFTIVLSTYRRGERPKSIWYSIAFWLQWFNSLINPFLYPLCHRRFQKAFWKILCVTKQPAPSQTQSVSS

- molecule: "CNC1CN(c2nc(N)nc3cc(C4CCCC4)cnc23)C1"
  measurement.units: "nM"
  Ki: 27.5
- molecule: "CN[C@@H]1CCN(c2cc(NCC3CC3)nc(N)n2)C1 [ADRIFORANT]"
  measurement.units: "nM"
  Ki: 55
- molecule: "CCc1cnc2c(N3CC[C@@H](NC)C3)nc(N)nc2c1"
  measurement.units: "nM"
  Ki: 138
- molecule: "CCc1cnc2c(N3CC(NC)C3)nc(N)nc2c1"
  measurement.units: "nM"
  Ki: 70.8
